Test system: Mycobacterium tuberculosis
procedure.text: Antimycobacterial activity against Mycobacterium tuberculosis H37Rv
Format: functional
measurement.conditions: Mycobacterium tuberculosis, H37Rv
endpoint: MIC (µg/mL)

1) Cc1cccc(Oc2nc(-c3ccc(NC(=S)Nc4ccccc4)cc3)nc3ccccc23)c1
100
2) COc1ccc(NC(=O)Nc2ccc(-c3nc(Oc4cccc(C)c4)c4ccccc4n3)cc2)cc1
62.5
3) Cc1ccc(NC(=S)Nc2ccc(-c3nc(Oc4cccc(C)c4)c4ccccc4n3)cc2)cc1
100
4) Cc1cccc(Oc2nc(-c3ccc(NC(=O)Nc4ccc(F)cc4)cc3)nc3ccccc23)c1
62.5
5) COc1ccc(NC(=S)Nc2ccc(-c3nc(Oc4cccc(C)c4)c4ccccc4n3)cc2)cc1
100
6) CC[C@@H](CO)NCCN[C@@H](CC)CO
3.12
7) Cc1cccc(Oc2nc(-c3ccc(NC(=O)Nc4ccc(Cl)cc4)cc3)nc3ccccc23)c1
100
8) Cc1cccc(Oc2nc(-c3ccc(NC(=S)Nc4ccc(Br)cc4)cc3)nc3ccccc23)c1
12.5

----------
The entries below come with measured log10(MIC) values attached.
Tested on: Mycobacterium tuberculosis
procedure.text: Antimycobacterial activity against Mycobacterium tuberculosis H37Rv
Assay type: functional
measurement.conditions: Mycobacterium tuberculosis, H37Rv
endpoint: log10(MIC) (log10 of the value in µg/mL)

1. Cc1cccc(Oc2nc(-c3ccc(NC(=S)Nc4ccc(Cl)cc4)cc3)nc3ccccc23)c1
1.40
2. Cc1cccc(Oc2nc(-c3ccc(NC(=O)Nc4ccccc4)cc3)nc3ccccc23)c1
2.40
3. CO[C@H]1/C=C/O[C@@]2(C)Oc3c(C)c(O)c4c(O)c(c(/C=N/N5CCN(C)CC5)c(O)c4c3C2=O)NC(=O)/C(C)=C\C=C\[C@H](C)[C@H](O)[C@@H](C)[C@@H](O)[C@@H](C)[C@H](OC(C)=O)[C@@H]1C [RIFAMPIN]
-0.60
4. Cc1cccc(Oc2nc(-c3ccc(NC(=O)Nc4ccc(Br)cc4)cc3)nc3ccccc23)c1
1.40
5. Cc1ccc(NC(=O)Nc2ccc(-c3nc(Oc4cccc(C)c4)c4ccccc4n3)cc2)cc1
2.30
6. NNC(=O)c1ccncc1 [ISONIAZID]
-0.70
7. CCOc1ccc(NC(=O)Nc2ccc(-c3nc(Oc4cccc(C)c4)c4ccccc4n3)cc2)cc1
2.00
8. CCOc1ccc(NC(=S)Nc2ccc(-c3nc(Oc4cccc(C)c4)c4ccccc4n3)cc2)cc1
2.30
9. NC(=O)c1cnccn1 [PYRAZINAMIDE]
0.80
10. Cc1cccc(Oc2nc(-c3ccc(NC(=S)Nc4ccc(F)cc4)cc3)nc3ccccc23)c1
1.70

----------
System: Staphylococcus aureus
procedure.text: Antibacterial activity against Staphylococcus aureus MTCC 96; note: test concentration or dose not given here
Format: functional
The entries below come with measured inhibition zone (IZ) values attached.
endpoint: inhibition zone (IZ) (mm)

1) Cc1cccc(Oc2nc(-c3ccc(NC(=O)Nc4ccc(Cl)cc4)cc3)nc3ccccc23)c1
25
2) Cc1cccc(Oc2nc(-c3ccc(NC(=S)Nc4ccc(F)cc4)cc3)nc3ccccc23)c1
24
3) Cc1cccc(Oc2nc(-c3ccc(NC(=S)Nc4ccc(Br)cc4)cc3)nc3ccccc23)c1
29
4) Cc1ccc(NC(=O)Nc2ccc(-c3nc(Oc4cccc(C)c4)c4ccccc4n3)cc2)cc1
23
5) Cc1cccc(Oc2nc(-c3ccc(NC(=S)Nc4ccc(Cl)cc4)cc3)nc3ccccc23)c1
24
